Tested on: Plasmodium berghei
Assay: Antimalarial activity as change in MST against drug-sensitive Plasmodium berghei infected mice (Mus musculus) at 160 mg/kg subcutaneous dose after 72 hr
Assay type: functional
Endpoint label: Delta MST (days)

- Compound: "CC1(C)N=C(N)N=C(N)N1c1ccc(Cl)cc1.Cl [CHLORCYCLOGUANIL HYDROCHLORIDE]"
  Endpoint label: "Delta MST"
  Readout units: "days"
  Reported: 5
- Compound: "Nc1nc(N)c2cc(S(=O)(=O)N3CCc4ccccc4C3)ccc2n1"
  Endpoint label: "Delta MST"
  Readout units: "days"
  Reported: 0.7
- Compound: "CCN(CC)S(=O)(=O)c1ccc2nc(N)nc(N)c2c1Cl"
  Endpoint label: "Delta MST"
  Readout units: "days"
  Reported: 14.9
- Compound: "CCCN(CCC)S(=O)(=O)c1ccc2nc(N)nc(N)c2c1"
  Endpoint label: "Delta MST"
  Readout units: "days"
  Reported: 0.4

---

Test system: Plasmodium berghei
Assay: Antimalarial activity as change in MST against drug-sensitive Plasmodium berghei infected mice (Mus musculus) at 20 mg/kg subcutaneous dose after 72h
Type: functional
Endpoint label: Delta MST (days)

- Compound string: "CN(c1cccc(Cl)c1)S(=O)(=O)c1ccc2nc(N)nc(N)c2c1"
  Reported: 0.3
- Compound string: "CCOC(=O)N1CCN(S(=O)(=O)c2ccc3nc(N)nc(N)c3c2)CC1"
  Reported: 0.1
- Compound string: "Nc1nc(N)c2cc(S(=O)(=O)N3CCSCC3)ccc2n1"
  Reported: 1.7
- Compound string: "Nc1nc(N)c2cc(S(=O)(=O)N3CCOCC3)ccc2n1"
  Reported: 1.7
- Compound string: "CN1CCN(S(=O)(=O)c2ccc3nc(N)nc(N)c3c2)CC1"
  Reported: 0.3
- Compound string: "CN(Cc1ccc(Cl)c(Cl)c1)S(=O)(=O)c1ccc2nc(N)nc(N)c2c1"
  Reported: 0.3
- Compound string: "CN(c1ccccc1)S(=O)(=O)c1ccc2nc(N)nc(N)c2c1"
  Reported: 0.5
- Compound string: "CN(C)S(=O)(=O)c1ccc2nc(N)nc(N)c2c1"
  Reported: 7.3
- Compound string: "Nc1nc(N)c2cc(S(=O)(=O)N(CCO)CCO)ccc2n1"
  Reported: 0.3
- Compound string: "Nc1nc(N)c2cc(S(=O)(=O)Nc3ccc4ccccc4c3)ccc2n1"
  Reported: 0.3
- Compound string: "Nc1nc(N)c2cc(S(=O)(=O)Nc3ccc(Cl)c(Cl)c3)ccc2n1"
  Reported: 0.3
- Compound string: "Nc1nc(N)c2cc(S(=O)(=O)Nc3ccc(Cl)cc3)ccc2n1"
  Reported: 0.5
- Compound string: "CN(C)S(=O)(=O)c1ccc2nc(N)nc(N)c2c1Cl"
  Reported: 7.5
- Compound string: "CCN(CC)S(=O)(=O)c1ccc2nc(N)nc(N)c2c1"
  Reported: 0.7
- Compound string: "Nc1nc(N)c2cc(S(=O)(=O)N3CCCCC3)ccc2n1"
  Reported: 1.1
- Compound string: "Nc1nc(N)c2cc(S(=O)(=O)N3CCCC3)ccc2n1"
  Reported: 0.5
- Compound string: "Nc1nc(N)c2cc(S(=O)(=O)Nc3cccc(Br)c3)ccc2n1"
  Reported: 0.3
- Compound string: "CC(C)N(C)S(=O)(=O)c1ccc2nc(N)nc(N)c2c1"
  Reported: 0.5

---

Tested on: Plasmodium berghei
Assay: Antimalarial activity as change in MST for drug-sensitive Plasmodium berghei infected mice (Mus musculus) at 640 mg/kg subcutaneous dose over 72 hr
Assay type: functional
Below, each entry is listed with its recorded Delta MST.

- Compound: "Nc1nc(N)c2cc(S(=O)(=O)Nc3ccc(Cl)cc3)ccc2n1"
  Readout units: "days"
  Delta MST: 13.9
- Compound: "Nc1nc(N)c2cc(S(=O)(=O)N3CCCCC3Cc3ccccc3)ccc2n1 (configuration not stated)"
  Readout units: "days"
  Delta MST: 0.5
- Compound: "CCCN(CCC)S(=O)(=O)c1ccc2nc(N)nc(N)c2c1"
  Readout units: "days"
  Delta MST: 1.3
- Compound: "CN1CCN(S(=O)(=O)c2ccc3nc(N)nc(N)c3c2)CC1"
  Readout units: "days"
  Delta MST: 11.8
- Compound: "Nc1nc(N)c2cc(S(=O)(=O)N(CCO)CCO)ccc2n1"
  Readout units: "days"
  Delta MST: 8.1
- Compound: "CC1(C)N=C(N)N=C(N)N1c1ccc(Cl)cc1.Cl [CHLORCYCLOGUANIL HYDROCHLORIDE]"
  Readout units: "days"
  Delta MST: 5
- Compound: "Nc1nc(N)c2cc(S(=O)(=O)Nc3cccc(Br)c3)ccc2n1"
  Readout units: "days"
  Delta MST: 4.1
- Compound: "CN(Cc1ccc(Cl)c(Cl)c1)S(=O)(=O)c1ccc2nc(N)nc(N)c2c1"
  Readout units: "days"
  Delta MST: 9.5
- Compound: "Nc1nc(N)c2cc(S(=O)(=O)N3CCSCC3)ccc2n1"
  Readout units: "days"
  Delta MST: 12.6
- Compound: "CN(c1ccccc1)S(=O)(=O)c1ccc2nc(N)nc(N)c2c1"
  Readout units: "days"
  Delta MST: 13.9
- Compound: "CN(c1cccc(Cl)c1)S(=O)(=O)c1ccc2nc(N)nc(N)c2c1"
  Readout units: "days"
  Delta MST: 11.9
- Compound: "CCN(CC)CCN(C)S(=O)(=O)c1ccc2nc(N)nc(N)c2c1"
  Readout units: "days"
  Delta MST: 0.3
- Compound: "Nc1nc(N)c2cc(S(N)(=O)=O)ccc2n1"
  Readout units: "days"
  Delta MST: 0.3
- Compound: "Nc1nc(N)c2cc(S(=O)(=O)N3CCC(N4CCCCC4)CC3)ccc2n1"
  Readout units: "days"
  Delta MST: 3.9
- Compound: "Nc1nc(N)c2cc(S(=O)(=O)Nc3ccc4ccccc4c3)ccc2n1"
  Readout units: "days"
  Delta MST: 5.3
- Compound: "Nc1nc(N)c2cc(S(=O)(=O)N3CCc4ccccc4C3)ccc2n1"
  Readout units: "days"
  Delta MST: 6.3
- Compound: "CCN(CC)S(=O)(=O)c1ccc2nc(N)nc(N)c2c1"
  Readout units: "days"
  Delta MST: 5

Reference for the values: ChEMBL document CHEMBL1122803
